The reported numbers originate from patent US4764433A.

MIC, Penicillium glaucum, per-entry values.
Reply numerically in µg/mL, unit not repeated.

Some entries whose results are on file:
Cc1ccc(C)c(S(=O)(=O)N(C)SC(F)(Cl)Cl)c1 | 20
O=C1c2ccccc2C(=O)N1SC(F)(Cl)Cl [A, N-fluorodichloromethylthiophthalimide, reference compound] | 35
COCCCN(SC(F)(Cl)Cl)S(=O)(=O)c1ccc(C)cc1 | 35
Cc1ccc(S(=O)(=O)N(C)SC(F)(Cl)Cl)cc1 | 10
CN(SC(F)(Cl)Cl)S(=O)(=O)c1cccc([N+](=O)[O-])c1 | 20

For the next question, use this compound.
Request: State the recorded MIC for this entry: `CN(SC(F)(Cl)Cl)S(=O)(=O)c1ccc(Cl)c([N+](=O)[O-])c1`
Result: 20
